- TESTED_TARGET: Alpha-bungarotoxin (Bungarus multicinctus)
- TEST_METHOD_NOTES: compounds binding labelled alpha-BTX control protein – biochemical, small-molecule microarray, Alexa647 label, 635/667 nm fluorescence, artefact control for SMM control protein annotation, profiling panel (AID 1117)
- CONDITION_NOTES: alpha-BTX-A647 binding fluorescence, higher = more signal
Parameter threshold = 1. Response is class 1 when composite z-score meets or exceeds it, else class 0.

CCOC(=O)C[C@H]1[C@H](OC(=O)c2ccccc2-c2ccccc2)[C@@H](NC(=O)c2ccc3ccccc3n2)c2cc(OCCCO)ccc2N1C(=O)Cc1ccc(OC)cc1 : class 0
CCOC(=O)C1=C[C@@H](c2ccccc2)N(S(=O)(=O)c2ccc(C)cc2)[C@H]1c1ccc(OC)cc1 : class 1
CS(=O)(=O)CCOC(=O)C1=CC(c2ccc(CO)cc2)=CC(C2CC2)N(Cc2sc3ccccc3c2Cl)C=C1C(=O)OCCS(C)(=O)=O (stereo unspecified) : class 1
CCCCC(CC)C(O)C1C=CC2C(=O)N(C)C(=O)C2N1Nc1ccccc1 (stereo unspecified) : class 1
COc1ccc(CCNC(=O)[C@@]2(Sc3ccc(C)cc3)CC(=O)N(Cc3ccccc3C(F)(F)F)[C@@H]2c2ccc(CO)cc2I)cc1 : class 1
CO[C@H]1O[C@H](CO)[C@@H](OC(=O)Nc2ccccc2)[C@H](OC(=O)c2cc3ccccc3[nH]2)[C@H]1OC(=O)c1cc2ccccc2[nH]1 : class 0

----------
- TEST_METHOD_NOTES: ATP-based viability of Huh7 replicon cells – cell-based, CellTiter-Glo luminescence, basal, 48 h, cytotoxicity control for HCV replication inhibitor project, primary screen (AID 1143);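 further: Huh7 hepatoma cells carrying a hepatitis C replication reporter with no stimulus; test concentration not given here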
- CONDITION_NOTES: higher = more signal, called active from +8 up or from −8 down
ASSAY_READOUT: z-score

CC1CC/C=C\[C@H]2OC34C=CCN(C(C)C)C(=O)[C@H]3N(CCO)C(=O)[C@@H]4C2C(=O)O1 (some centres not stated) : -0.177
CS(=O)(=O)CCOC(=O)C1=CC(CCCO)=CC(c2ccc(CN3CCCC3)cc2)N(Cc2sc3ccccc3c2Cl)C=C1C(=O)OCCS(C)(=O)=O (configuration not stated) : -1.29
CCN(CC)c1ccc(N2CC=CC34O[C@@H]5/C=C\CCCOC(=O)C5[C@H]3C(=O)N(C(C)CO)[C@@H]4C2=O)cc1 (some centres not stated) : 0.307
NC(=O)NCC#Cc1ccc2c(c1)[C@]1(C(=O)N2)[C@H](C(=O)N2CCN(c3ncccn3)CC2)[C@H]2C(=O)O[C@H](c3ccccc3)[C@H](c3ccccc3)N2[C@@H]1c1ccc(O)cc1 : -0.0243
C=CCC(OC(C)=O)[C@@H]1[C@@H](N(Cc2ccc(-c3cccc(C(F)(F)F)c3)o2)C(=O)Cc2ccc(OC)cc2)c2cc(OCCCO)ccc2N1C(=O)c1ccc(-c2ccccc2)cc1 (some centres not stated) : -1.28
COc1ccc(CCNC(=O)[C@@]2(Sc3ccc(C)cc3)CC(=O)N(Cc3ccccc3C(F)(F)F)[C@@H]2c2ccc(CO)cc2I)cc1 : -1.53
[N-]=[N+]=Nc1ccccc1[C@@H]1OC(c2ccc(OCCCO)cc2)=N[C@]1(Cc1ccccc1)C(=O)N1CCCCC1 : -4.4

----------
- TEST_METHOD_NOTES: plasmodial surface anion channel blockers, osmotic lysis – cell-based, P. falciparum Indochina, OD700, 2 h, primary screen (AID 1155);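 further: lysis reports solute entry through the parasite surface anion channel PSAC; channel blockers reduce lysis of infected cells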
- CONDITION_NOTES: P. falciparum Indochina infected erythrocytes, higher = more signal, called active from +8 up or from −8 down
Parameter threshold = 1. Response is YES when z-score meets or exceeds it, else NO.

CCCC1(C(=O)OC)C=C2C(=C(C)C(=O)C2C)CN1 (stereo not given) : NO
[N-]=[N+]=NCc1ccccc1[C@H]1OC(c2ccc(OCCCO)cc2)=N[C@@]1(Cc1ccccc1N=[N+]=[N-])C(=O)NCC(O)CO (stereo not given in full) : YES
COc1cc(OC)c(C(O)C2C=CC3C(=O)N(Cc4ccccc4)C(=O)C3N2n2cnnc2)cc1Br (stereo not given) : NO
CC(C)N1CC=CC23O[C@@H]4C=CCCOC(=O)C4[C@H]2C(=O)N(CCCO)[C@@H]3C1=O (stereo not given in full) : NO
CCOC(=O)C[C@H]1[C@H](OC(=O)c2ccc(C(=O)c3ccccc3)cc2)[C@@H](NC(=O)c2ccc(-c3ccccc3)cc2)c2cc(OCCCO)ccc2N1C(=O)Cc1ccc(OC)cc1 : YES
CO[C@H]1O[C@H](CO)[C@@H](OC(=O)Nc2ccc(Br)cc2)[C@@H]2OC(=O)[C@@H](Cc3ccccc3)C/C=C/C[C@H](Cc3ccccc3)C(=O)O[C@@H]12 : NO
COC(=O)c1c(CC[C@@H](CO)NC(=O)N[C@@H](C)Cn2cc(-c3ccccn3)nn2)oc(C(C)=O)c1C(=O)OC : NO
C=CC[C@H](OC(=O)Nc1ccc(SC)cc1)c1ccc(O)c2ccccc12 : YES
COc1ccc([Si](C)(C)[C@@H]2[C@@H](CC(=O)N(CCO)Cc3ccccc3)O[C@]3(C(=O)N(Cc4cccc(N5CCCCC5=O)c4)c4ccccc43)[C@H]2C)cc1 : YES
CCCC#C[Si](O[C@H](CC)c1cn([C@H](C)c2ccccc2)nn1)(C(C)C)C(C)C : YES
CC(C)[Si](C#C[Si](C(C)C)(C(C)C)C(C)C)(O[C@H](c1ccccc1)c1cn(Cc2ccccc2)nn1)C(C)C : NO
COC(=O)[C@@H]1N=C(c2ccc(OCCCO)cc2)O[C@@H]1C : YES
CCN(CC)c1ccc(N2CC=CC34O[C@@H]5/C=C\CCCOC(=O)C5[C@H]3C(=O)N(C(C)CO)[C@@H]4C2=O)cc1 (stereo not given in full) : NO
[N-]=[N+]=NCc1ccccc1C[C@@]1(C(N)=O)N=C(c2ccc(OCCCO)cc2)O[C@@H]1c1ccccc1 : YES
COCCOC(=O)N1C(=O)[C@@]2(c3ccccc31)[C@H](c1ccc(O)cc1)N1[C@H](c3ccccc3)[C@H](c3ccccc3)OC(=O)[C@H]1[C@@H]2C(=O)N1CCN(c2ncccn2)CC1 : NO
CN1C2C=C(CCCO)C(C3C(=O)N(C(N)=O)C(=O)C32)C1C1CC1 (stereo not given) : NO
Cc1ccc(S[C@]2(C(=O)O)CC(=O)N(C3CCCCC3)[C@@H]2c2ccc(CO)cc2I)cc1 : NO
CCCCC(=C=CC[C@H](O)c1ccc(OCCO)cc1)CCO : YES
O=C(c1ccccc1)N1C(=O)[C@]2(Cc3ccccc31)N=C(c1ccc(OCCCO)cc1)O[C@@H]2c1ccccc1 : YES
COCCOC(=O)N1C(=O)[C@@]2(c3cc(C#CC4=CCCCC4)ccc31)[C@H](c1ccccc1OCCO)N1[C@H](c3ccccc3)[C@H](c3ccccc3)OC(=O)[C@H]1[C@@H]2C(=O)N1CCN(c2ncccn2)CC1 : NO
CC(C)(C)OC(=O)COc1cccc(C(=O)CCN2CCOCC2)c1 : YES
C=CCC(OC(C)=O)[C@@H]1[C@@H](N(Cc2ccc(-c3cccc(C(F)(F)F)c3)o2)C(=O)c2ccc(-c3ccccc3)cc2)c2cc(OCCCO)ccc2N1C(=O)Cc1ccc2ccccc2c1 (stereo not given in full) : NO
O=C1NC(=O)C2C1C=CC(C(O)c1ccco1)N2Nc1ccc(Cl)cc1Cl (stereo not given) : YES
Cc1ccccc1C(O)C1C=CC2C(=O)NC(=O)C2N1Nc1ccccn1 (stereo not given) : NO

----------
- TEST_METHOD_NOTES: probe aCHRDL2 binding to arrayed compounds – biochemical, biotinylated probe, 635/667 nm fluorescence, primary screen (AID 1100)
- CONDITION_NOTES: small-molecule microarray, higher = more signal
# composite z-score values compiled below
ASSAY_READOUT: composite z-score

CC(C)C(CO)N1C(=O)[C@@H]2[C@H]3C(=O)OCC=C[C@H]3OC23C=CCN(c2ccc(Cl)cc2)C(=O)[C@@H]13 (some centres not stated) : -0.0455
CCCCC(CC)C(O)C1C=CC2C(=O)N(c3ccccc3)C(=O)C2N1Nc1ccc(C#N)cc1 (configuration not stated) : 0.813
C=CC[C@]1(C(=O)N2CCOCC2)COC(c2ccc(OCCCO)cc2)=N1 : 0.431
CC1CC/C=C\[C@H]2OC34C=CCN(Cc5ccccc5)C(=O)[C@H]3N(C(CO)C(C)C)C(=O)[C@@H]4C2C(=O)O1 (some centres not stated) : 0.146
CCCC#C[Si](O[C@H](CC)c1cn([C@H](C)c2ccccc2)nn1)(C(C)C)C(C)C : -0.212
[N-]=[N+]=Nc1ccccc1C[C@@]1(C(N)=O)N=C(c2ccc(OCCCO)cc2)O[C@@H]1c1ccccc1N=[N+]=[N-] : 0.974
CCCC=C(CCC)[C@@H](NC(=O)C(C)(C)C)c1ccc(C(=O)OC)cc1 : 1.06

----------
- TEST_METHOD_NOTES: JC-1 mitochondrial signal, unstimulated adipocytes – cell-based, JC-1 fluorescence, 3T3-L1 adipocytes, 24 h, 100 nL compound, profiling panel (AID 1168); further: test concentration not given here
- CONDITION_NOTES: JC-1 mitochondrial fluorescence, higher = more signal, called active from +8 up or from −8 down
Parameter threshold = -0.2. Response is 1 (yes) when z-score meets or exceeds it, else 0 (no).

COC(=O)C1(CC(C)C)C=C2C(=C(c3ccccc3)C(=O)C2C)CN1 (stereo unspecified) : 0 (no)
COC(=O)[C@@]1(Cc2ccccc2)[C@H]2c3cc(C(=O)N4CCCC4)n(CCc4ccccn4)c3C[C@H]2CN1C(=O)c1ccccc1 : 1 (yes)
CN(C)C(=O)[C@]1(Cc2ccccc2CN=[N+]=[N-])N=C(c2ccc(OCCCO)cc2)O[C@@H]1c1ccccc1 : 0 (no)
C=CCN1Cc2ccccc2[C@@H]2OC(c3ccc(OCCCO)cc3)=N[C@]2(CC=C)C1=O : 1 (yes)
COCCOC(=O)N1C(=O)[C@@]2(c3ccccc31)[C@H](C(=O)NC[C@H](O)c1ccccc1)[C@H]1C(=O)O[C@H](c3ccccc3)[C@H](c3ccccc3)N1[C@@H]2c1ccc(O)cc1 : 0 (no)
C=CC[C@H](OC(=O)Nc1ccc(SC)cc1)c1ccc(O)c2ccccc12 : 1 (yes)
